From: ChEMBL document CHEMBL4184259

# assay.explanation: Effective permeability of the compound in PBS/EtOH at 100 ug/ml after 18 hrs by PAMPA-BBB assay
In this section we review reported Papp at 18 h, 100 ug/ml values for a set of compounds.
Report as a plain number; the unit ×10⁻⁶ cm/s is understood.

compound="CC(C(=O)O)c1ccc(-c2ccc(O)c(C(=O)/C=C/c3ccc(N(C)C)cc3)c2)c(F)c1 (configuration not stated)" endpoint_label="Papp at 18 h, 100 ug/ml" value_measured=2.25

Let's switch to this compound now.
### Prompt Given CCN(CC)c1ccc(/C=C/C(=O)c2cc(-c3ccc(C(C)C(=O)O)cc3F)ccc2O)cc1 (configuration not stated) , state its recorded Papp at 18 h, 100 ug/ml.
### Response 6.66

* * *

Reported values of inhibition for individual entries
# assay.explanation: Inhibition of cupric ion-mediated amyloid beta (1 to 42) aggregation at 25 uM after 24 hrs by thioflavin T fluorescence assay relative to control
Write down the numeric answer in % and omit the unit.

Worked cases, answers included:
compound="CC(C(=O)O)c1ccc(-c2ccc(O)c(C(=O)/C=C/c3ccc(O)cc3)c2)c(F)c1 (stereo not given)" value_measured=26.1
compound="CC(C(=O)O)c1ccc(-c2ccc(O)c(C(=O)/C=C/c3ccc(N(C)C)cc3)c2)c(F)c1 (stereo not given)" value_measured=52.4
compound=COc1cc(/C=C/C(=O)CC(=O)/C=C/c2ccc(O)c(OC)c2)ccc1O value_measured=69.5
compound="COc1ccc(O)c(/C=C/C(=O)c2cc(-c3ccc(C(C)C(=O)O)cc3F)ccc2O)c1 (stereo not given)" value_measured=22.2

Proceeding to the next compound to report its inhibition.
### Prompt Sample COc1ccc(/C=C/C(=O)c2cc(-c3ccc(C(C)C(=O)O)cc3F)ccc2O)cc1 (stereo not given) — what was its inhibition?
### Response 29.1

* * *

# test.system: Amyloid-beta precursor protein (Homo sapiens) (UniProt P05067)
# Sequence (P05067 whole entry): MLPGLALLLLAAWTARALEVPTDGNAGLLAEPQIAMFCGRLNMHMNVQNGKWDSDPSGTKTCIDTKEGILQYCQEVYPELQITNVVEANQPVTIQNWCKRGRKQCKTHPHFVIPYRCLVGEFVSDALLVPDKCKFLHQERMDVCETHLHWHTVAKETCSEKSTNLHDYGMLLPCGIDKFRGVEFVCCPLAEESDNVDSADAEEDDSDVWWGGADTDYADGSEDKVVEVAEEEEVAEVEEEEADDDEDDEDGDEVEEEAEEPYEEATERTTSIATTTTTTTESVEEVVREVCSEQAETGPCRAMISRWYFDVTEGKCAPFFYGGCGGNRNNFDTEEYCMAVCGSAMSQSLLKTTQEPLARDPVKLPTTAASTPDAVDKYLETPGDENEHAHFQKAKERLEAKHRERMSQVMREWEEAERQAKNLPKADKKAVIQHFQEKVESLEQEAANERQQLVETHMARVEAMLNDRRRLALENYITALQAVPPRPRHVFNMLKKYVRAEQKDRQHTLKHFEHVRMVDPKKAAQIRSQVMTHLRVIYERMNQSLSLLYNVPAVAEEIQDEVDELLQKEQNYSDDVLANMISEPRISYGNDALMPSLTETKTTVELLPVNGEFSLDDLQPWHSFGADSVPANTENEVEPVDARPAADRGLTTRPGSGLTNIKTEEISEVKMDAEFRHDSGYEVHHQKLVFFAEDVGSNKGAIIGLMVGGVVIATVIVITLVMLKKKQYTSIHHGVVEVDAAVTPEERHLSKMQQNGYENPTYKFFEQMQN
# assay.explanation: Inhibition of self-induced aggregation of amyloid beta (1 to 42) (unknown origin) at 25 uM after 24 hrs by thioflavin T fluorescence method relative to control
Label scheme for inhibition: lower than 20% is Criterion not met, 20% and above is Criterion met.

### Prompt // inclusive: inhibition at least 20%? input: CC(C(=O)O)c1ccc(-c2ccc(O)c(C(=O)/C=C/c3ccccc3N(C)C)c2)c(F)c1 (stereo not given)
### Response Criterion met

### Prompt Kindly determine if inhibition recorded for CC(C(=O)O)c1ccc(-c2ccc(O)c(C(=O)/C=C/c3cccs3)c2)c(F)c1 (stereo not given) is above or exactly 20%.
### Response Criterion not met

* * *

# test.system: Amyloid-beta precursor protein (Homo sapiens) (UniProt P05067)
# assay.explanation: Inhibition of self-induced aggregation of amyloid beta (1 to 42) (unknown origin) at 25 uM after 24 hrs by thioflavin T fluorescence method relative to control
endpoint.label: inhibition

A selection of reference data follows.
compound="COc1cccc(/C=C/C(=O)c2cc(-c3ccc(C(C)C(=O)O)cc3F)ccc2O)c1O (centres undefined)" endpoint_label=inhibition value_measured=29%
compound="CC(C(=O)O)c1ccc(-c2ccc(O)c(C(=O)/C=C/c3ccc(N(C)C)cc3)c2)c(F)c1 (centres undefined)" endpoint_label=inhibition value_measured=60%
compound="COc1ccc(/C=C/C(=O)c2cc(-c3ccc(C(C)C(=O)O)cc3F)ccc2O)cc1O (centres undefined)" endpoint_label=inhibition value_measured=31%
compound="COc1ccc(O)c(/C=C/C(=O)c2cc(-c3ccc(C(C)C(=O)O)cc3F)ccc2O)c1 (centres undefined)" endpoint_label=inhibition value_measured=38.1%
compound="CC(C(=O)O)c1ccc(-c2ccc(O)c(C(=O)/C=C/c3ccc(O)cc3)c2)c(F)c1 (centres undefined)" endpoint_label=inhibition value_measured=18.7%

### Prompt Please provide the recorded inhibition for COc1ccccc1/C=C/C(=O)c1cc(-c2ccc(C(C)C(=O)O)cc2F)ccc1O (centres undefined) , tested on Amyloid-beta precursor protein (Homo sapiens) (UniProt P05067).
### Response 25.1%

### Prompt # value lookup — system Amyloid-beta precursor protein (Homo sapiens) (UniProt P05067), readout inhibition, item CC(C(=O)O)c1ccc(-c2ccc(O)c(C(=O)/C=C/c3ccc(N4CCOCC4)cc3)c2)c(F)c1 (centres undefined)
### Response 51.3%

### Prompt Find inhibition (Amyloid-beta precursor protein (Homo sapiens) (UniProt P05067)) for the entry CC(C(=O)O)c1ccc(-c2ccc(O)c(C(=O)/C=C/c3ccccc3O)c2)c(F)c1 (centres undefined)
### Response 23.1%

### Prompt Short answer please: inhibition, Amyloid-beta precursor protein (Homo sapiens) (UniProt P05067), entry COc1ccc(/C=C/C(=O)c2cc(-c3ccc(C(C)C(=O)O)cc3F)ccc2O)cc1OC (centres undefined)
### Response 14.2%

* * *

# assay.explanation: Inhibition of cupric ion-mediated amyloid beta (1 to 42) aggregation at 25 uM after 24 hrs by thioflavin T fluorescence assay relative to control
endpoint.label: inhibition (%)
# output: bare number, implied unit %

Solved cases below.
molecule="Cc1ccc(/C=C/C(=O)c2cc(-c3ccc(C(C)C(=O)O)cc3F)ccc2O)cc1 (stereo not given)" endpoint_label=inhibition display_unit=% value_measured=18.7
molecule="COc1ccc(/C=C/C(=O)c2cc(-c3ccc(C(C)C(=O)O)cc3F)ccc2O)c(OC)c1 (stereo not given)" endpoint_label=inhibition display_unit=% value_measured=45.3
molecule="CC(C(=O)O)c1ccc(-c2ccc(O)c(C(=O)/C=C/c3ccccc3N(C)C)c2)c(F)c1 (stereo not given)" endpoint_label=inhibition display_unit=% value_measured=20.1

### Prompt Item under review: COc1cccc(/C=C/C(=O)c2cc(-c3ccc(C(C)C(=O)O)cc3F)ccc2O)c1O (stereo not given) . Reported inhibition?
### Response 13.4

* * *

# assay.explanation: Antioxidant activity assessed as trolox equivalent of […]-induced radical scavenging activity at 1 to 10 uM pretreated for 15 mins followed by […] addition measured at 1 min interval for 90 mins by ORAC-FL assay
# Format: functional
endpoint.label: Activity (equiv)
The reply should contain only the number, in equiv.

molecule="CC(C(=O)O)c1ccc(-c2ccc(O)c(C(=O)/C=C/c3cccnc3)c2)c(F)c1 (stereo not given)" endpoint_label=Activity value_measured=1.1

### Prompt Consider the molecule CC(C(=O)O)c1ccc(-c2ccc(O)c(C(=O)/C=C/c3ccncc3)c2)c(F)c1 (stereo not given) and give its measured Activity.
### Response 0.9

### Prompt # lookup: Activity of COc1ccc(O)c(/C=C/C(=O)c2cc(-c3ccc(C(C)C(=O)O)cc3F)ccc2O)c1 (stereo not given)
### Response 2.5

### Prompt Which value of Activity has been reported for CC(C(=O)O)c1ccc(-c2ccc(O)c(C(=O)/C=C/c3ccc(O)cc3)c2)c(F)c1 (stereo not given) in the records?
### Response 3.5

### Prompt What Activity value was documented for this molecule, COc1ccc(/C=C/C(=O)c2cc(-c3ccc(C(C)C(=O)O)cc3F)ccc2O)c(OC)c1 (stereo not given) ?
### Response 1.05

### Prompt Which Activity reading was recorded for the molecule CCN(CC)c1ccc(/C=C/C(=O)c2cc(-c3ccc(C(C)C(=O)O)cc3F)ccc2O)cc1 (stereo not given) ?
### Response 3.3

* * *

# assay.explanation: Inhibition of cupric ion-mediated amyloid beta (1 to 42) aggregation at 25 uM after 24 hrs by thioflavin T fluorescence assay relative to control
endpoint.label: inhibition (%)
Provide only the numeric value, understood in %.

compound="CC(C(=O)O)c1ccc(-c2ccc(O)c(C(=O)/C=C/c3ccc(N4CCCCC4)cc3)c2)c(F)c1 (stereo unspecified)" display_unit=% value_measured=53.8

### Prompt I have this compound here, COc1ccccc1/C=C/C(=O)c1cc(-c2ccc(C(C)C(=O)O)cc2F)ccc1O (stereo unspecified) , and I need its recorded inhibition.
### Response 18.9

### Prompt Using the record for CC(C(=O)O)c1ccc(-c2ccccc2)c(F)c1 (stereo unspecified) [FLURBIPROFEN] , report its inhibition.
### Response 6.2

### Prompt So what does the record say about inhibition for COc1ccc(/C=C/C(=O)c2cc(-c3ccc(C(C)C(=O)O)cc3F)ccc2O)cc1O (stereo unspecified) ?
### Response 14.6

### Prompt Give its inhibition value. Item: CC(C(=O)O)c1ccc(-c2ccc(O)c(C(=O)/C=C/c3cccnc3)c2)c(F)c1 (stereo unspecified)
### Response 47

### Prompt Can you share its inhibition? I mean this compound: CCN(CC)c1ccc(/C=C/C(=O)c2cc(-c3ccc(C(C)C(=O)O)cc3F)ccc2O)cc1 (stereo unspecified)
### Response 95

* * *

# test.system: Amyloid-beta precursor protein (Homo sapiens)
# assay.explanation: Inhibition of self-induced aggregation of amyloid beta (1 to 42) (unknown origin) at 25 uM after 24 hrs by thioflavin T fluorescence method relative to control
endpoint.label: inhibition (%)
// return numeric value only (unit: %, not printed)

Worked examples follow.
compound="COc1ccc(/C=C/C(=O)c2cc(-c3ccc(C(C)C(=O)O)cc3F)ccc2O)cc1 (stereo not drawn)" display_unit=% value_measured=32.9
compound="Cc1ccc(/C=C/C(=O)c2cc(-c3ccc(C(C)C(=O)O)cc3F)ccc2O)cc1 (stereo not drawn)" display_unit=% value_measured=23.6

Continue with the compound presented below.
### Prompt Item under review: CC(C(=O)O)c1ccc(-c2ccc(O)c(C(=O)/C=C/c3ccc(N4CCCCC4)cc3)c2)c(F)c1 (stereo not drawn) . Reported inhibition?
### Response 31.5
